Items are presented alongside their recorded melting point.
reported property: melting point

COC1=c2c(OC(=O)c3ccc([N+](=O)[O-])cc3)c(-c3ccc(OC)cc3)c(=O)oc2=CC2OC(C)(C)C=CC12 (centres unmarked): 239.5 to 241.9 °C
COC1=c2c(OC(=O)c3cccs3)c(-c3ccc(OC)cc3)c(=O)oc2=CC2OC(C)(C)C=CC12 (centres unmarked): 171.5 to 182.3 °C
COC1=c2c(OC(=O)c3ccc(Br)cc3F)c(-c3ccc(OC)cc3)c(=O)oc2=CC2OC(C)(C)C=CC12 (centres unmarked): 250.8 to 251.9 °C
COC1=c2c(OC(=O)c3ccc(C(F)(F)F)cc3)c(-c3ccc(OC)cc3)c(=O)oc2=CC2OC(C)(C)C=CC12 (centres unmarked): 225.6 to 228.5 °C
COC1=c2c(OC(=O)c3ccccc3)c(-c3ccc(OC)cc3)c(=O)oc2=CC2OC(C)(C)C=CC12 (centres unmarked): 266.4 to 273.4 °C
COc1ccc(-c2c(OC(=O)c3ccc(F)cc3)c3c(OC)c4c(cc3oc2=O)OC(C)(C)C=C4)cc1: 236.8 to 239.6 °C
CCc1ccc(C(=O)Oc2c(-c3ccc(OC)cc3)c(=O)oc3c2=C(OC)C2C=CC(C)(C)OC2C=3)cc1 (centres unmarked): 246.9 to 250.2 °C
COC1=c2c(OC(C)=O)c(-c3ccc(OC)cc3)c(=O)oc2=CC2OC(C)(C)C=CC12 (centres unmarked): 189.9 to 192.1 °C
